Target: T1, HMG1 purified from calf (bovine) thymus (bovine, UniProt P10103 2-215)
T1 construct: also called Calf thymus HMGB1; thymus HMG1
T1 sequence (looked up): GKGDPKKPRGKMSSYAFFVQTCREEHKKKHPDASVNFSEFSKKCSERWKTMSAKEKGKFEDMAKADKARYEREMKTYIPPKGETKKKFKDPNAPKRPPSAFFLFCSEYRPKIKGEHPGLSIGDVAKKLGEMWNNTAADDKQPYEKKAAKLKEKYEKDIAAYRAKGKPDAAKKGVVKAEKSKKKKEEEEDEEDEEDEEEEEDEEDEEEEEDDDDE
Assay: direct ELISA, calf thymus HMGB1 coated at 5 ug/mL, antibody at 10 ug/mL, anti-human kappa/lambda-HRP, OD 490
MEASURE: binding result

BINDER: human anti-HMG1 antibody G9 (antibody, IgG1, V domains shown, full length IgG1 made from a human Fab phage clone) VH: EVQLLESGGGLVQPGGSLRLSCAASGFTFSSYDMFWVRQAPGKGLEWVSRISPSGGYTYYADSVKGRFTISRDNSKNTLYLQMNSLRAEDTAVYYCARLRYFDSRGYAFDIWGQGTMVTVSS VL: DIQMTQSPGTLSLSPGERATLSCRASQSVRSSYLAWYQQKPGQAPRLLIYGASTRATGIPDRFSGSGSGTDFTLTISRLEPEDFAVYYCQQYGTSRWTFGQGTKVEIK
MEASURE: binding result
RESULT: binds
